Target: PI3K (p110δ/p85α) (h) (Homo sapiens (Human), UniProt O00329)
Sequence (O00329 whole entry): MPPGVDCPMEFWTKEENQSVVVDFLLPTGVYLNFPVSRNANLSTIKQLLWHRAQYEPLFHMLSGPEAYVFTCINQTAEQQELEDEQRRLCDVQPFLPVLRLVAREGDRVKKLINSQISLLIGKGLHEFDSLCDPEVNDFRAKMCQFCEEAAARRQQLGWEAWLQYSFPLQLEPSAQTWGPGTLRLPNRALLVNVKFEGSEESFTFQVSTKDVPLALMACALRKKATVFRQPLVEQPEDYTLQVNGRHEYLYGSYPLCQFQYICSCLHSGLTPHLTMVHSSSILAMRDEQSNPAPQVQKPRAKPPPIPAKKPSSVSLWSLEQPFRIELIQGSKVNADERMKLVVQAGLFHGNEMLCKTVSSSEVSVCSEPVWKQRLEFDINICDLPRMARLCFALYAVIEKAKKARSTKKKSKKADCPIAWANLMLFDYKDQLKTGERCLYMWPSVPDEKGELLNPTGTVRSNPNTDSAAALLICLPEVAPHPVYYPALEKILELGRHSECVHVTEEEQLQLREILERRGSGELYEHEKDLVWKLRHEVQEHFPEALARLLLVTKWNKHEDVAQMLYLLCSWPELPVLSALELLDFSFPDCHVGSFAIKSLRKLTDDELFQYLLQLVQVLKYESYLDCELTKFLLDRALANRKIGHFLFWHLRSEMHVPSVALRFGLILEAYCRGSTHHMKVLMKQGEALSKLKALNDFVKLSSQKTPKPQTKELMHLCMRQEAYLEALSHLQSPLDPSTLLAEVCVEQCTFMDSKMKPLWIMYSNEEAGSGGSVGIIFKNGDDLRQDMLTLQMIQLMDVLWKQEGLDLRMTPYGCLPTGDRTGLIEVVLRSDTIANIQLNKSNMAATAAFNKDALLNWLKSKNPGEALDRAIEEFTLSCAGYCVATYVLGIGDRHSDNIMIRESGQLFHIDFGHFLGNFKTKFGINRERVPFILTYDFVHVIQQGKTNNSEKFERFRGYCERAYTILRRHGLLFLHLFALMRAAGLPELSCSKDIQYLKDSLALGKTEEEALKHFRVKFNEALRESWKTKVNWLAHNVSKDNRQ
Sequence (P27986 whole entry partner): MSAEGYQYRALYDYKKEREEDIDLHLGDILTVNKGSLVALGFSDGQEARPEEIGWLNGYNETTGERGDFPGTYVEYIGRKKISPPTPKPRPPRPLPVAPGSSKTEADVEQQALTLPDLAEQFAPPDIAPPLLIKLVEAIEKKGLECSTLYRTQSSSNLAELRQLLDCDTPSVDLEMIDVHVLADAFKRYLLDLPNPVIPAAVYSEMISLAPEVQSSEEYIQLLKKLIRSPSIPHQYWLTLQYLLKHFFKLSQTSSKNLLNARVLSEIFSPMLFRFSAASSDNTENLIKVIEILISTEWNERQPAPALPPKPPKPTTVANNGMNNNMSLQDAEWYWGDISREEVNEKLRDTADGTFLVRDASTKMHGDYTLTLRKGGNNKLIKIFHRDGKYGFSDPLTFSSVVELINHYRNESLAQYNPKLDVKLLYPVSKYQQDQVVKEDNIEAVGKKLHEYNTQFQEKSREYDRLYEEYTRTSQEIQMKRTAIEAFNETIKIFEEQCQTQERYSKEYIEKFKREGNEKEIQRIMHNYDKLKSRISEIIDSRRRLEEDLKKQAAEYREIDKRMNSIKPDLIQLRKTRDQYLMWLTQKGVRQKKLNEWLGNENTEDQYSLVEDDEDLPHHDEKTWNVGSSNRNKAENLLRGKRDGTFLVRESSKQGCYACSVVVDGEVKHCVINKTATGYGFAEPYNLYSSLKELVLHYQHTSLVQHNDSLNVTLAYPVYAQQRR
Experiment: PI3K (p110δ/p85α) (h) non-radioactive HTRF kinase assay
Field: pIC50. Provide a value for each of the compounds that follow.
Answers are plain numbers, as −log10 of the molar value.

Some compounds with known pIC50 results, for comparison:
Cc1noc(-c2c(N)ncnc2N[C@@H](C)c2nc3cccc(Cl)c3c(=O)n2C2CC2)n1 [Ex. 41] = 8.30
CC[C@H](Nc1ncnc(N)c1-c1nc(C)no1)c1nc2cccc(F)c2c(=O)n1C1CC1 [Ex. 23] = 7.28
CC[C@H](Nc1ncnc(N)c1-c1nc(C)no1)c1nc2cccc(C)c2c(=O)n1C1CC1 [Ex. 21] = 7.72

Now for the compound whose pIC50 we want.
Answer with the recorded pIC50 for the compound listed here: CC[C@H](Nc1ncnc(N)c1-c1nc(C)no1)c1nc2cccc(Cl)c2c(=O)n1-c1ccccc1 [Ex. 3] 8.70
